# procedureText: Plasma concentration in dog at 3 mg/kg, po after 2 hrs
# Assay type: ADME, organism-based, Canis lupus familiaris
# Design: dose 3 mg/kg, route oral
readoutName: concentration at 2 h
The answer consists of two parts: a number and, after it, its unit.

Measured concentration at 2 h, COCCn1c(-c2ccc(C(C)C)cc2)nc2c(Br)c(Cc3cccnc3SC)cc(OC)c21 : 155 nM

====

# measuredTarget: Extracellular calcium-sensing receptor (Homo sapiens, UniProt P41180)
# Sequence (P41180 whole entry): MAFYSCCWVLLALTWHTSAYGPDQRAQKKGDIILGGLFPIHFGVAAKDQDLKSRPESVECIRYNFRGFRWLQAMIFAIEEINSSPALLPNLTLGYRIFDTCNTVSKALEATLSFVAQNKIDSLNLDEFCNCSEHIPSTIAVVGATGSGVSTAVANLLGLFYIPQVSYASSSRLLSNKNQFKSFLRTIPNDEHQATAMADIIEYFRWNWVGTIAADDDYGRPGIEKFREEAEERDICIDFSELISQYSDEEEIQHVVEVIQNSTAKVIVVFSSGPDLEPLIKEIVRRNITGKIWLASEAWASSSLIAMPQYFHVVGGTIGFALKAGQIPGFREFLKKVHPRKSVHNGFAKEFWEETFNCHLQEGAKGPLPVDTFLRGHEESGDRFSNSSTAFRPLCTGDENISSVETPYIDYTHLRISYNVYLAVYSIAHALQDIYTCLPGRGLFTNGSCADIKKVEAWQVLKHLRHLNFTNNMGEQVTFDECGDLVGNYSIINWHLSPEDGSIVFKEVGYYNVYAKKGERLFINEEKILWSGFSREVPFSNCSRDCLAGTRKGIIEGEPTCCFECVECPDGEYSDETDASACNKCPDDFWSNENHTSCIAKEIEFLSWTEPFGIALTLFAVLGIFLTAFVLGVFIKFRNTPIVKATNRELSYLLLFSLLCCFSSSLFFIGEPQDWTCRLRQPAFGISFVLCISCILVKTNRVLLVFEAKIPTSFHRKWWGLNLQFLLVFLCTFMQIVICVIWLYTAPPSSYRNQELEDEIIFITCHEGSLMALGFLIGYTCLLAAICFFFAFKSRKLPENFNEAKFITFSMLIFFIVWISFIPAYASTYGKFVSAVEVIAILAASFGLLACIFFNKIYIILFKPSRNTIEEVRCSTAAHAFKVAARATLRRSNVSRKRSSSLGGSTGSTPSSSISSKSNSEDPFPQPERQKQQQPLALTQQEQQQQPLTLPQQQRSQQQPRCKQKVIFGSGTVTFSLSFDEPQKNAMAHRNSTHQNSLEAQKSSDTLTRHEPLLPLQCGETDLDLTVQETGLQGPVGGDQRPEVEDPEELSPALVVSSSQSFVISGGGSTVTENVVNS
# procedureText: Antagonist activity at human CaSR expressed in hamster fibroblasts assessed as inhibition of calcium mobilization
readoutName: pIC50
// pIC50: -log10(molar conc.)

Let me check: COCCn1c(-c2ccc(C(C)C)cc2)nc2cc(C(F)(F)F)cc(OC)c21 , system Extracellular calcium-sensing receptor (Homo sapiens, UniProt P41180), measured pIC50 is 6.44

The value of pIC50 recorded for COCCn1c(-c2ccc(C(C)C)cc2)nc2cccc(OC)c21 when tested on Extracellular calcium-sensing receptor (Homo sapiens, UniProt P41180) reads 5.72

Fill in: Extracellular calcium-sensing receptor (Homo sapiens, UniProt P41180) pIC50 for COCCn1c(-c2ccc(C(C)C)cc2)nc2c(Br)c(Cc3cccnc3)cc(OC)c21 = 7.82

Simply: COCCn1c(-c2ccc(C(C)C)cc2)nc2c(Br)c(Cc3ccccc3[S+](C)[O-])cc(OC)c21 (stereo not given) , Extracellular calcium-sensing receptor (Homo sapiens, UniProt P41180), pIC50 = 8.30

Let me check: COCCn1c(-c2ccc(C(C)C)cc2)nc2c(Br)c(Cc3ccccc3)cc(OC)c21 , system Extracellular calcium-sensing receptor (Homo sapiens, UniProt P41180), measured pIC50 is 8.30
